Data credit: patent US11814435B2

Known kd Cyno of a selection of molecules
- experimental.system: Cyno BCMA
- protocol.details: Kinetics and affinity of cyno BCMA/human IgG interactions by SPR (Bio-Rad Proteon XPR36)
- Assay type: binding, cynomolgus
- reported.conditions: 37° C.
API: value field is a number in s⁻¹; no unit string.

Completed entries (count: 2):
A02_Rd4_6 nM_C19: anti-BCMA antibody (antibody, V domains shown) VH: EVQLLESGGGLVQPGGSLRLSCAASGFTFSSYAMNWVRQAPGKGLEWVSAISDSGGSRWYADSVKGRFTISRDNSKNTLYLQMNSLRAEDTAVYYCARYWPMSDWGQGTLVTVSS VL: EIVLTQSPGTLSLSPGERATLSCRASQSVSVLYLAWYQQKPGQAPRLLMYDASIRATGIPDRFSGSGSGTDFTLTISRLEPEDFAVYYCQQYLAWPLTFGQGTKVEIK | 0.000661
A02_Rd4_6 nM_C10: anti-BCMA antibody (antibody, V domains shown) VH: EVQLLESGGGLVQPGGSLRLSCAASGFTFSSYAMNWVRQAPGKGLEWVSAISDSGGSCWYADSVKGRFTISRDNSKNTLYLQMNSLRAEDTAVYYCARYWPMTPWGQGTLVTVSS VL: EIVLTQSPGTLSLSPGERATLSCRASQSVEMSYLAWYQQKPGQAPRLLMYDASIRATGIPDRFSGSGSGTDFTLTISRLEPEDFAVYYCQQYAHWPLTFGQGTKVEIK | 0.000898

With those in mind, consider the next molecule.
Field kd Cyno (entry COMBO_Rd4_6 nM_C08: anti-BCMA antibody (antibody, V domains shown) VH: EVQLLESGGGLVQPGGSLRLSCAASGFTFSSYPMSWVRQAPGKGLEWVSAIGGSGTWTYYADSVKGRFTISRDNSKNTLYLQMNSLRAEDTAVYYCARYWPMDSWGQGTLVTVSS VL: EIVLTQSPGTLSLSPGERATLSCRASQSVSSSYLAWYQQKPGQAPRLLMYDASIRATGIPDRFSGSGSGTDFTLTISRLEPEDFAVYYCQQYQKWPLTFGQGTKVEIK ) reads 0.000428
